- METHOD DESCRIPTION: soluble on expression in E. coli; label from the status in PepcDB or PDB records
MEASURED ATTRIBUTE: soluble on expression in E. coli

- PRIMARY SEQUENCE: "GQNHHEVVKFMDVYQRSYCHPIETLVDIFQEYPDEIEYIFKPSCVPLMRCGGCCNDEGLECVPTEESNITMQIMRIKPHQGQHIGEMSFLQHNKCECRPKKD"
  RESULT: "soluble"
- PRIMARY SEQUENCE: "SAQESLESQEQRARAALRERYLRSLLAMVGHQVSFTLHEGVRVAAHFGATDLDVANFYVSQLQTPIGVQAEALLRCSDIISYTFKP"
  RESULT: "soluble"
- PRIMARY SEQUENCE: "MALPRITQKEMTEREQRELKTLLDRARIAHGRVLTNSETNSIKKDYIDKLMVEREAEAKKARQLKKKQAYKPDPEASFSWSANTSTRGRR"
  RESULT: "soluble"
